The values you see were collected from the supplement of paper PMC10567573.

B1: BEX1 (parent)
chain: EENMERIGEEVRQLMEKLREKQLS

# Variants of: B1
# TEST_DESCRIPTION: protein stability index of a GFP-peptide fusion (GPS, HEK-293T) (PSI 1-6); higher = more stable;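 note: lentivirally expressed fusions sorted by FACS into six bins by GFP to DsRed ratio, PSI derived from sequencing read proportions per bin multiplied by bin number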
# EXPERIMENTAL_CONTEXT: c terminus: a fixed tail appended
Classify by measured protein stability index: condition met if it is equal to or exceeds 4, condition not met if it is smaller.

> print(dat)
    variant.label              group
 1            R6C      condition met
 2            E2R      condition met
 3            M4E      condition met
 4           V11T      condition met
 5            E2Y  condition not met
 6           V11R      condition met
 7           R12H      condition met
 8           V11P      condition met
 9           R19N      condition met
10           K21F      condition met
11           E16P  condition not met
12           K21C  condition not met
13           M15V  condition not met
14            I7M      condition met
15            E2D      condition met
16            E5N      condition met
17            N3W      condition met
18            E2F      condition met
19            E5F      condition met
